Target: human GLP-1 receptor (human, UniProt P43220 24-463)
Experiment: cell-based or functional assay
*1 amine or outer side, *2 acyl side, *3 side chain or, on linkers, in order; H or OH if unused. Where no end group is shown, it is not given here. Side-chain parts run from the residue outwards. [ ]: non-standard residue; d: D form. The star is where a group is joined. Decanoyl(10-(4-HOOC-PhO)) = O=C(O)c1ccc(OCCCCCCCCCC(=O)*)cc1; αMePhe(2-F) = C[C@](N)(Cc1ccccc1F)C(=O)O; γGlu = O=C(O)[C@H](CCC(=O)[*:2])N[*:1]; αMeY = C[C@](N)(Cc1ccc(O)cc1)C(=O)O; αMeL = CC(C)C[C@](C)(N)C(=O)O; Orn = NCCC[C@H](N)C(=O)O; AEEA = NCCOCCOCC(=O)O; Aib = CC(C)(N)C(=O)O
Listed next: entries and their corresponding cAMP EC50 (1.0% HSA).
Please reply with the bare figure in nM and do not write the unit itself.

YXEGTXTSDXXIXLDXKAQXEXIXXLIEGGPSSGAPPPSK (not fully specified; Y-Aib-EGT-αMeF(2F)-TSD-4Pal-Aib-I-αMeL-LD-Orn-K((2-[2-(2-Amino-ethoxy)-ethoxy]-acetyl)2-(γ Glu)-CO-(CH2)10C3)AQ-Aib-E-αMeF-I-(D-Glu)-αMeY-LIEGGPSSGAPPPSK((2-[2-(2-Amino-ethoxy)-ethoxy]-acetyl)2-(γ-Glu)-CO-(CH2)10-CH3)-NH2) [Example 431] = 17.5
YXEGTXTSDYXIXLDXIAQXXFIKXLIKGGPSSGAPPPS (Y-Aib-EGT-αMeF(2F)-TSDY-Aib-I-αMeL-LD-Orn-IAQ-Aib-Orn-FIK((2-[2-(2-Amino-ethoxy)-ethoxy]-acetyl)3-(γ-Glu)-CO-(CH2)12-CO2H)-αMeY-LIK((2-[2-(2-Amino-ethoxy)-ethoxy]-acetyl)3-(γ-Glu)-CO-(CH2)12-CO2H)GGPSSGAPPPS-NH2) [Example 478] = 6.16
YXEGTXTSDYXIXLDXKAQXKFIXXLIEGGPSSGAPPPS (Y-Aib-EGT-αMeF(2F)-TSDY-Aib-I-αMeL-LD-Orn-K((2-[2-(2-Amino-ethoxy)-ethoxy]-acetyl)-(γ-Glu)-CO-(CH2)12-CO2H)AQ-Aib-K((2-[2-(2-Amino-ethoxy)-ethoxy]-acetyl)-(γ-Glu)-CO-(CH2)12-CO2H)FI-(D-Glu)-αMeY-LIEGGPSSGAPPPS-NH2) [Example 366] = 96.2

Q: Given the binder YXEGTXTSDKXIXLDXKAQXEXIXXLIEGGPSSGAPPPS (Y-Aib-EGT-αMeF(2F)-TSDK((2-[2-(2-Amino-ethoxy)-ethoxy]-acetyl)2-(γ-Glu)-CO-(CH2)10-CH3)-Aib-I-αMeL-LD-Orn-K((2-[2-(2-Amino-ethoxy)-ethoxy]-acetyl)2-(γ-Glu)-CO-(CH2)10-CH3)AQ-Aib-E-αMeF-I-(D-Glu)-αMeY-LIEGGPSSGAPPPS-NH2) [Example 429] , write its reported cAMP EC50 (1.0% HSA).
Result: 17.3

Q: Write down cAMP EC50 (1.0% HSA) measured for item Y[Aib]EGT[αMePhe(2-F)]TSDV[Aib]I[αMeL]LD[Orn]IAQ[Aib][Orn]FIK([AEEA-AEEA-γGlu-Decanoyl(10-(4-HOOC-PhO))])[αMeY]LIK([AEEA-AEEA-γGlu-Decanoyl(10-(4-HOOC-PhO))])GGPSSGAPPPS-NH2 [Example 356]
Result: 23.4

This collection of values is drawn from patent US20230265151A1.
